Tested on: SK-OV-3
Assay: NCI tumour cell line growth inhibition, 48 h
Activity calls are given as the source filed them. No stated cut-off is given here; in the data, active = GI50 up to about 1.1 µM and inactive = higher. Non-standard residues stand in square brackets, D forms with d. Residues, ends and D or L forms follow the SMILES beside them. ξ: configuration not given here. *: point of attachment. ξHyp = O=C(O)C1CC(O)CN1; Cbz = O=C(OCc1ccccc1)*

# compound, target entity, GI50
measured = [
    ("Cc1ccc(S(=O)(=O)n2c3c(c4ccccc42)CCN2CCC(Br)C[C@@H]32)cc1 (stereo not given in full)", "SK-OV-3", "15.7 µM (inactive)"),
    ("CCC(=O)N1NC(=O)C(CC)(CC)C1=O", "SK-OV-3", "> 100 µM (inactive)"),
    ("COc1cccc(N2C(=O)C3c4[nH]c5ccc(C)cc5c4C4CCC(C(C)(C)C)CC4C3C2=O)c1 (stereo not given)", "SK-OV-3", "> 10 µM (inactive)"),
    ("O=P(O)(CN1CCN(CP(=O)(O)c2ccccc2)CCN(CP(=O)(O)c2ccccc2)CC1)c1ccccc1", "SK-OV-3", "> 100 µM (inactive)"),
    ("NC(=O)CNC(=O)C1CC(O)CN1C(=O)OCc1ccccc1 (stereo not given) (Cbz-[ξHyp]-Gly-NH2)", "SK-OV-3", "> 100 µM (inactive)"),
]
